Ref: PubChem BioAssay

assay: modulators of CIT2-GFP expression in yeast, confirmation, S. cerevisiae, GFP fusion, cherry picks, mother/daughter gates (AID 2274); conditions: S. cerevisiae CIT2-GFP strain, flow cytometry, 3 h; measured here: daughter cell gate; at 10 µM; stronger effect = higher value
READOUT TYPE: GFP response, % of DMSO (%)
Unit % implied. Number only.

MOLECULE | GFP response, % of DMSO, %
O=C1c2ccsc2SCCN1Cc1ccc(F)cc1 | 103

We now examine a further molecule.
GFP response, % of DMSO recorded for this molecule, COc1ccccc1C1CC(c2c(-c3ccccc3)c3cc(Cl)ccc3[nH]c2=O)=NN1S(C)(=O)=O (centres undefined) , is 112

* * *

assay: compound autofluorescence in yeast s288c, dose response, artefact control for yeast TOR pathway GFP screen, s288c strain (AID 2757);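 further: thousands of bead-calibrated equivalent soluble fluorophore molecules from median cell fluorescence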; details: S. cerevisiae s288c, 520 nm autofluorescence, flow cytometry, 3 h; at 33 µM; stronger effect = higher value; zero means same as solvent-only cells
The other results are listed elsewhere or left out.
Parameter: fluorescence change (kMESF span). Scope: all listed entries.
# answer = number (no unit)

COMPOUND | fluorescence change (kMESF span)
Cc1cccc(C)c1NC(=O)C(Cl)C(=O)c1ccccc1 (configuration not stated) | 0

Noted for O=C(c1ccc(Cl)c([N+](=O)[O-])c1)N1CCN(c2ccccc2)CC1 : its fluorescence change (kMESF span) reads 2.52

The reported value for Cc1cc(C)nc(S/C=C/C(=O)c2ccccc2)n1 in terms of fluorescence change (kMESF span) is 1.02

Briefly, fluorescence change (kMESF span) measured for Clc1cccc(CN2COc3c(cc(Cl)c4cccnc34)C2)c1 : 1.92

For reference, reported fluorescence change (kMESF span) for COc1ccc(C(=O)NC(=S)NNC(=O)CCc2ccccc2)cc1 stands at 0.3

Reported fluorescence change (kMESF span) ( Cc1cc(O)c(C(=O)/C=C/c2c(F)c(F)c(F)c(F)c2F)c(=O)o1 ) = 9.67

Value of fluorescence change (kMESF span) reported for the compound COc1ccc(C2(C)ON(c3ccccc3C(F)(F)F)C2=O)cc1 (configuration not stated) is 0.5

* * *

# inhibition values compiled below
target: Integrin beta-1 (Homo sapiens) + Integrin alpha-4 (Homo sapiens) (UniProt P13612+P05556); test: inhibition of HUTS-21 binding to VLA-4, pilot screen, VLA-4 allosteric modulator project, U937 cells, HUTS-21 mAb, flow cytometry, validation set (AID 2674); conditions: HUTS-21 LIBS mAb binding, at 6.7 µM, stronger effect = higher value, binding induced by LDV ligand;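 further: antibody binding induced by the VLA-4 ligand LDV present at three times its Kd; 0% = LDV ligand with antibody and no compound and 100% = antibody without LDV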
Sequence (P05556 whole entry, looked up): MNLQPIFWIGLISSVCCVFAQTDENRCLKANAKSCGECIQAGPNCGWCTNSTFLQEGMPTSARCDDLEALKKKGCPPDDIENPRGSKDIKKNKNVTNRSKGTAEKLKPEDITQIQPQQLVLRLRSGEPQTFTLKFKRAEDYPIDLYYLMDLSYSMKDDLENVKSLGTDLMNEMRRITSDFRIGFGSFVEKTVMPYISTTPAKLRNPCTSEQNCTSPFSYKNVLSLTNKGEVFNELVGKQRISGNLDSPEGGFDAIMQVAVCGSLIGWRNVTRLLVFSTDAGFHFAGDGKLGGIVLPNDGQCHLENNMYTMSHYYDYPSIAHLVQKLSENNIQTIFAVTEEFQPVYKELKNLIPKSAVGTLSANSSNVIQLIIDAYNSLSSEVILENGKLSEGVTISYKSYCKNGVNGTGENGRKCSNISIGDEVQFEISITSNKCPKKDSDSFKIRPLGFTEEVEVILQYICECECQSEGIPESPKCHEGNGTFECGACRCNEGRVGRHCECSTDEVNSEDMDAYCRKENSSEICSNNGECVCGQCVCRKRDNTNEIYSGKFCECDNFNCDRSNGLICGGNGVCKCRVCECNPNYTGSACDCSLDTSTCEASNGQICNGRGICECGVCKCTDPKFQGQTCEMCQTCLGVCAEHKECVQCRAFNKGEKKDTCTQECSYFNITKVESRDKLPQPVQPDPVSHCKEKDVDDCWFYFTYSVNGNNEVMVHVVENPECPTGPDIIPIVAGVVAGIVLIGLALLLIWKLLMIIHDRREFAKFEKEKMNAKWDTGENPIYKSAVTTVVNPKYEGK
Sequence (P13612 whole entry, looked up): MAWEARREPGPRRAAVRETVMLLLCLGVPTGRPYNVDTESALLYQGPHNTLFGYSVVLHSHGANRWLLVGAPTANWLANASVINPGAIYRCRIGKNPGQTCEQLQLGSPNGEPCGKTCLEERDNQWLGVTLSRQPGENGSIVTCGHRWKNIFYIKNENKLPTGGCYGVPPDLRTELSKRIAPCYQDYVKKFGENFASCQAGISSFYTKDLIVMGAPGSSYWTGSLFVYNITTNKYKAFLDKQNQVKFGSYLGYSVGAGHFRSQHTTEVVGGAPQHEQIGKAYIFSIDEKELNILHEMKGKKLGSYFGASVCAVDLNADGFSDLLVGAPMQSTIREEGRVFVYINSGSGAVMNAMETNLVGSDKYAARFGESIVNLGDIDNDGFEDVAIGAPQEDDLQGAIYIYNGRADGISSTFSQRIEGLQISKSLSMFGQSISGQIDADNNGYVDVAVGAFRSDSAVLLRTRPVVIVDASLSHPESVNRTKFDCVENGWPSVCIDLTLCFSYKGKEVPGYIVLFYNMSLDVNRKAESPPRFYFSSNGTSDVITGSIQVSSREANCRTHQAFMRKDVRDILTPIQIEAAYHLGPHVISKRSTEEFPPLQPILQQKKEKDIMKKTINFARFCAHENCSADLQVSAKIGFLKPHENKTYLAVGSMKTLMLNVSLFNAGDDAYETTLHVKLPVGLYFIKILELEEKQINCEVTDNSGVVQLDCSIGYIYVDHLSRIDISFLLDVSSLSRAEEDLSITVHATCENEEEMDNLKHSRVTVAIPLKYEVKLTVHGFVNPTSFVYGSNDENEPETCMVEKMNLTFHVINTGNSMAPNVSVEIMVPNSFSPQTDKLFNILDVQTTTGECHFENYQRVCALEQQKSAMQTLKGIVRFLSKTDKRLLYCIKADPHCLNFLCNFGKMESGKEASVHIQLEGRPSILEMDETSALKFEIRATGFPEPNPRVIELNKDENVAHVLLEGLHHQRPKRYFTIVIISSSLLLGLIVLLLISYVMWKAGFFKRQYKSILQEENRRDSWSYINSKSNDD
State the answer as a number, implicitly in %.

Please fill in: inhibition reported for CC1=CC(C)(C)N2C(=O)C3(NCCc4c3[nH]c3ccccc43)c3cc(C)cc1c32 (stereo unspecified) = 22.1

* * *

assay: LAP4-GFP expression modulators in yeast, confirmation, cell-based, cherry picks, flow cytometry, mother/daughter gates (AID 2271);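 further: ratio of sample to DMSO plate mean so 100% equals DMSO level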; settings: S. cerevisiae LAP4-GFP strain, 3 h, measured here: daughter cell gate response, at 10 µM, stronger effect = higher value, 100 means same as DMSO control
Known GFP response relative to DMSO of a selection of compounds
Could you give me the number in %? Just the number is fine.

COMPOUND | READOUT TYPE | VAL
COc1ccc(NC(=O)/C(C#N)=C/c2ncc([N+](=O)[O-])n2C)c(OC)c1 | GFP response relative to DMSO | 138

Lab note: CCOC(=O)CSC1=NC(=O)/C(=C\c2ccc(Cl)cc2)S1 gave GFP response relative to DMSO of 150

GFP response relative to DMSO reported for this compound CCCc1[nH]nc2c1C(c1ccc(Br)s1)C(C#N)=C(N)O2 (stereo not drawn) : 136

GFP response relative to DMSO for CCCc1nnc(N2C(=O)c3cccc4cccc(c34)C2=O)s1 is 104

Entry under test: CC(=O)c1ccc(NC(=O)CN2CCC(NC(=O)C3CCCCC3)CC2)cc1 . Its GFP response relative to DMSO was 97.9

So, CCOc1ccc(C(=O)/C=C/c2ccc(SC)cc2)cc1 ? Its GFP response relative to DMSO was 99.1

Noted for Cc1nnc(NC(=O)c2ccc(S(=O)(=O)N(C)Cc3ccccc3)cc2)o1 : its GFP response relative to DMSO reads 99.2

Measured GFP response relative to DMSO, Cc1cc(S(=O)(=O)c2ccc([N+](=O)[O-])cn2)ccc1Br : 118

Record COc1ccc(N2CCN(c3nc4c(C)cccn4c(=O)c3/C=C(\C#N)C(N)=O)CC2)cc1 , field GFP response relative to DMSO: 101

Lab note: measured GFP response relative to DMSO of CCC(=O)Nc1cccc(C(=O)/C=C/c2ccccc2)c1 was 102

Briefly, GFP response relative to DMSO measured for Cc1cc(NCCN2CCOCC2)n2nc(C)c(-c3ccccc3)c2n1 : 95

In plain terms, COC(=O)Cn1cc(/C=C/[N+](=O)[O-])c2ccccc21 has a documented GFP response relative to DMSO of 146

According to the records, this compound CCCn1c(=O)c(C(=O)Nc2ccccc2C(=O)OC)c(O)c2ccccc21 displays GFP response relative to DMSO of 94.1

Measured GFP response relative to DMSO, COC(=O)c1cc(NC(=O)c2c(Cl)nc3sccn23)cc(C(=O)OC)c1 : 92.8

Consider O=C1C=CC(=O)N1N(c1ccccc1)c1ccccc1 . Its measured GFP response relative to DMSO is 148

Recorded GFP response relative to DMSO (compound Oc1c(Br)cc(Br)cc1C=Nc1ccc2c(c1)OCO2 ): 114

Sample O=C(Oc1c(Cl)cc(Cl)c2cccnc12)c1cccc([N+](=O)[O-])c1 ; GFP response relative to DMSO observed: 183

For reference, reported GFP response relative to DMSO for COc1cc(NC(=O)c2ccc(C)cc2)ccc1NC(=O)c1cc2ccccc2o1 stands at 91
